assay: qHTS assay to identify small molecule antagonists of the retinoid acid receptor (RAR) signaling pathway - cell viability counter screen (AID 1159551); conditions: C3RL4 cells viability, ATP luminescence (CellTiter-Glo), 6 h; series mostly up to 92.4 µM; note: nearly all actives have a fitted effect of over 35% in size
Inconclusive results are not listed. The source made the active and inactive calls. Calls come from the whole dose curve; as a rule, active = well fitted cell-killing curve with a large enough effect in the repeat runs; inconclusive = weak or mixed curves, or effect the other way; inactive = flat fitted curve, though single readings scatter.
Please answer using one outcome listed in Yes = active, No = inactive

Query block: Hey, what did the test say about CC/C(=C(/c1ccc(O)cc1)c1ccc(OCCN(C)C)cc1)c1ccccc1 ?
Result block: Yes

Query block: Hey, what did the test say about CCCC(C)C=O (configuration not stated) ?
Result block: No

Query block: Hey, what did the test say about C=CC(=O)O[C@H]1C[C@@H]2CC[C@@]1(C)C2(C)C ?
Result block: No

Query block: Hey, what did the test say about Brc1cc(Br)cc(Br)c1 ?
Result block: No

Query block: Hey, what did the test say about Nc1ccc(F)c([N+](=O)[O-])c1 ?
Result block: No

Query block: Hey, what did the test say about Nc1ccc2c(S(=O)(=O)O)cccc2c1S(=O)(=O)O ?
Result block: No

Query block: Hey, what did the test say about CCSCC ?
Result block: No

---

molecular target: Estrogen receptor (Homo sapiens) (UniProt P03372); assay: qHTS assay to identify small molecule antagonists of the estrogen receptor alpha (ER-alpha) signaling pathway using the BG1 cell line in the presence of 0.1 nM 17-beta-estradiol (AID 1259244); conditions: VM7Luc4E2 (BG1) ERE-luciferase, antagonist mode, 0.1 nM E2, 22 h; series mostly up to 92.4 µM; note: % is set by controls: 0 for no effect and ±100 for the full control effect; nearly all actives have a fitted effect of over 50% in size
Sequence (P03372 whole entry, looked up): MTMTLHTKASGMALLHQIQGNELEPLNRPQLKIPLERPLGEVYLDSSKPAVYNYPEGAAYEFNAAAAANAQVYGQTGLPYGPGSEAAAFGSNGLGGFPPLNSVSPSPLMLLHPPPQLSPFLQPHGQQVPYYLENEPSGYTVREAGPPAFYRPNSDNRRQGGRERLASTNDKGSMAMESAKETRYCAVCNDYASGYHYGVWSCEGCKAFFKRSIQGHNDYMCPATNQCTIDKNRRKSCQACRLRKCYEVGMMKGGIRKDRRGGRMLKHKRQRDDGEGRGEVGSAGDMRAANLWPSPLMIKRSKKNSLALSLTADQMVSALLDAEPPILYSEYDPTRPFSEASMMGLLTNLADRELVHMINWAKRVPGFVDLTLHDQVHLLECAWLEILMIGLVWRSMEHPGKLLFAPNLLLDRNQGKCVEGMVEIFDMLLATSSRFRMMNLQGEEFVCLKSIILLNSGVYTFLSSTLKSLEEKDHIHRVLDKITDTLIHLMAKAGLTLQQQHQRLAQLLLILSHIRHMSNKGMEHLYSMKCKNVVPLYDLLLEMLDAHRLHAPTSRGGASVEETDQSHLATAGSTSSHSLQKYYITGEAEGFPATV
Results filed as inconclusive are left out. The source made the active and inactive calls. The call rests on the fitted dose curve; in most records, active means well fitted inhibition curve with a large enough effect in the repeat runs; inconclusive means weak or mixed curves; inactive means no such curve, though single readings can be large or run the other way.
For each of the compounds below, state its activity change, negative = inhibition.

Query block: Any idea what its activity change, negative = inhibition is? The compound is O=C(O)C[C@H](O)C[C@H](O)/C=C/c1c(C2CC2)nc2ccccc2c1-c1ccc(F)cc1
Result block: 17.2% [at 19 µM] (inactive)

Query block: Any idea what its activity change, negative = inhibition is? The compound is C=CC(=O)OCCOC1C2CCC1C1CC=CC12 (centres undefined)
Result block: 2.43% [at 19 µM] (inactive)

Query block: Any idea what its activity change, negative = inhibition is? The compound is CCCCNc1ccc(NCCCC)c2c1C(=O)c1ccccc1C2=O
Result block: 2.76% [at 19 µM] (inactive)

Query block: Any idea what its activity change, negative = inhibition is? The compound is O=C(O)CN(CCCN(CC(=O)O)CC(=O)O)CC(=O)O
Result block: -0.399% [at 19 µM] (inactive)

---

experiment: qHTS assay to test for compound auto fluorescence at 590 nm (red) in HEK293 cells (AID 720679); conditions: red autofluorescence 540/590 nm; series mostly up to 46 µM; note: % is set by controls: 0 for no effect and ±100 for the full control effect
Activity calls are given as the source filed them. Calls follow the shape of the dose curve; as a rule, active = well fitted curve in the direction sought with a large enough effect in the repeat runs; inconclusive = weak or mixed curves; inactive = flat fitted curve, though single readings scatter.
VALUE TYPE: outcome

# example entries with known answers
CC1(C)S[C@@H]2[C@H](NC(=O)[C@@H](NC(=O)N3CCNC3=O)c3ccccc3)C(=O)N2[C@H]1C(=O)O : inactive
N=C(N)c1ccc(/C=C/c2ccc(C(=N)N)cc2O)cc1 : inactive
Nc1c(CC(=O)O)cccc1C(=O)c1ccccc1 : inactive
CC/C=C\C/C=C\C/C=C\C/C=C\C/C=C\CCCC(=O)O : inactive
O=P(O)(O)C(O)(Cn1ccnc1)P(=O)(O)O : inactive

Query block: Any idea what its outcome is? The compound is COc1c(O)cc2c(c1O)[C@@H]1O[C@H](CO)[C@@H](O)[C@H](O)[C@H]1OC2=O
Result block: inactive

Query block: Any idea what its outcome is? The compound is CCC[C@@H]1C[C@@H](C(=O)N[C@@H]([C@H]2O[C@H](SC)[C@H](OP(=O)(O)O)[C@@H](O)[C@H]2O)[C@H](C)Cl)N(C)C1
Result block: inactive

Query block: Any idea what its outcome is? The compound is C[C@H](O)CN(C)C
Result block: inactive

---

target: Nuclear receptor subfamily 1 group I member 2 (Homo sapiens); assay: Human pregnane X receptor (PXR) small molecule agonists, qHTS assay (AID 1346982); conditions: PXR-Luc HepG2, CYP3A4 luciferase reporter, 24 h; series mostly up to 92.4 µM; note: nearly all actives have a fitted effect of over 35% in size; for activation: % is set by controls: 0 for no effect and ±100 for the full control effect
Records with an inconclusive call do not appear. The source made the active and inactive calls. The call rests on the fitted dose curve; in most records, active means well fitted activation curve with a large enough effect in the repeat runs; inconclusive means weak or mixed curves; inactive means no such curve, though single readings can be large or run the other way.
Please answer using one outcome listed in T = active, F = inactive

Query block: Hey, what did the test say about CCCCCN=C(N)N/N=C/c1c[nH]c2ccc(OC)cc12 ?
Result block: F

Query block: Hey, what did the test say about C=CC(=O)OCC(Br)CBr (stereo not given) ?
Result block: F

Query block: Hey, what did the test say about Cc1ccc(N=Nc2c(O)ccc3ccccc23)c(C)c1 ?
Result block: T

Query block: Hey, what did the test say about C[C@H]1O[C@@H](O[C@H]2CC[C@@]3(C)[C@H](CC[C@@H]4[C@@H]3C[C@@H](O)[C@]3(C)[C@@H](C5=CC(=O)OC5)CC[C@]43O)C2)C[C@H](O)[C@@H]1O[C@H]1C[C@H](O)[C@H](O[C@H]2C[C@H](O)[C@H](O[C@@H]3O[C@H](CO)[C@@H](O)[C@H](O)[C@H]3O)[C@@H](C)O2)[C@@H](C)O1 ?
Result block: F

Query block: Hey, what did the test say about CC1(C)[C@H](C(=O)OCc2cccc(Oc3ccccc3)c2)[C@@H]1C=C(Cl)Cl ?
Result block: F

Query block: Hey, what did the test say about NC(=O)C1CO1 (stereo not given) ?
Result block: F

Query block: Hey, what did the test say about CCC1(C)C(=O)N(Cl)C(=O)N1Cl (stereo not given) ?
Result block: F

Query block: Hey, what did the test say about CCOC(=O)C1=NN(c2ccc(Cl)cc2Cl)C(C)(C(=O)OCC)C1 (stereo not given) ?
Result block: T

Query block: Hey, what did the test say about O=c1[nH]cccc1O ?
Result block: F

Query block: Hey, what did the test say about Cc1c[nH]c(=O)[nH]c1=O ?
Result block: F

---

For each of the molecules below, state its activation.
biological target: Nuclear receptor subfamily 1 group I member 2 (Homo sapiens) (UniProt O75469); assay: Human pregnane X receptor (PXR) small molecule agonists, qHTS assay (AID 1346982); settings: PXR-Luc HepG2, CYP3A4 luciferase reporter, 24 h; series mostly up to 92.4 µM; note: nearly all actives have a fitted effect of over 35% in size; for activation: % is set by controls: 0 for no effect and ±100 for the full control effect
Sequence (O75469 whole entry, looked up): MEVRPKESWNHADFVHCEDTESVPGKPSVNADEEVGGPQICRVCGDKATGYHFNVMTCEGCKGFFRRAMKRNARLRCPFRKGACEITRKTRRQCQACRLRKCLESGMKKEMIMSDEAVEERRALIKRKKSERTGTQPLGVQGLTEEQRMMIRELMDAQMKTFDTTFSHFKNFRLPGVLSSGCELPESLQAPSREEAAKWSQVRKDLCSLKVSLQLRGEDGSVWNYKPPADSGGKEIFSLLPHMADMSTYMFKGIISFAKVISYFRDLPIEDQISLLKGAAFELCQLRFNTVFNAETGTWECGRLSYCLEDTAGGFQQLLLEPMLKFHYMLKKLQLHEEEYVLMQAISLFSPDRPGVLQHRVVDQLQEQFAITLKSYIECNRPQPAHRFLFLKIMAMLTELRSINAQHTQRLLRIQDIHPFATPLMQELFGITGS
Results filed as inconclusive are left out. Activity calls are given as the source filed them. Calls follow the shape of the dose curve; as a rule, active = well fitted activation curve with a large enough effect in the repeat runs; inconclusive = weak or mixed curves; inactive = no such curve, though single readings can be large or run the other way.

Query block: Any idea what its activation is? The molecule is C=C[Si](C)(C)Cl
Result block: 4.97% [at 8.39 µM] (inactive)

Query block: Any idea what its activation is? The molecule is CCCCNc1ccc(NCCCC)c2c1C(=O)c1ccccc1C2=O
Result block: 2.95% [at 19 µM] (inactive)

Query block: Any idea what its activation is? The molecule is C=CC(=O)OCCOC1C2CCC1C1CC=CC12 (centres undefined)
Result block: 5.97% [at 19 µM] (inactive)

Query block: Any idea what its activation is? The molecule is O=C(O)CN(CCCN(CC(=O)O)CC(=O)O)CC(=O)O
Result block: 1.69% [at 19 µM] (inactive)

---

assay: qHTS assay to test for compound auto fluorescence at 460 nm (blue) in HEK293 cells (AID 720678); settings: blue autofluorescence 405/460 nm; series mostly up to 46 µM; note: % is set by controls: 0 for no effect and ±100 for the full control effect
Activity calls are given as the source filed them. Calls come from the whole dose curve; as a rule, active = well fitted curve in the direction sought with a large enough effect in the repeat runs; inconclusive = weak or mixed curves; inactive = flat fitted curve, though single readings scatter.
VALUE TYPE: outcome

# example entries with known answers
O=C(O)[C@@H]1C[C@H](CP(=O)(O)O)CCN1 : inactive
CO/N=C(\C(=O)N[C@@H]1C(=O)N2C(C(=O)[O-])=C(C[n+]3ccc(N)n3CCO)CS[C@H]12)c1csc(N)n1 : inactive
CN(C)CCC(O)(c1ccccc1)c1ccccc1Cl (stereo unspecified) : inactive
CCC[C@@H]1C[C@@H](C(=O)N[C@@H]([C@H]2O[C@H](SC)[C@H](OP(=O)(O)O)[C@@H](O)[C@H]2O)[C@H](C)Cl)N(C)C1 : inactive
CC(=O)Nc1ccc(OC(C)=O)cc1 : inactive

Here is another compound to look at.
Query block: Any idea what its outcome is? The compound is CC(C)(C)c1ccc2c(S(=O)(=O)O)c(C(C)(C)C)ccc2c1
Result block: inactive

---

assay: qHTS RealTime-Glo MT Cell Viability Assay in HepG2 cells - 40 hour (AID 1224870); conditions: RealTime-Glo luminescence; series mostly up to 76.8 µM; note: % is set by controls: 0 for no effect and ±100 for the full control effect; nearly all actives have a fitted effect of over 50% in size
Inconclusive results are not listed. The source made the active and inactive calls. Calls come from the whole dose curve; as a rule, active = well fitted cell-killing curve with a large enough effect in the repeat runs; inconclusive = weak or mixed curves, or effect the other way; inactive = flat fitted curve, though single readings scatter.
VALUE TYPE: activity change, negative = cytotoxic

Query block: Any idea what its activity change, negative = cytotoxic is? The compound is CCCCNc1ccc(NCCCC)c2c1C(=O)c1ccccc1C2=O
Result block: -5.13% [at 15.8 µM] (inactive)

Query block: Any idea what its activity change, negative = cytotoxic is? The compound is CCCCCCCCCCCCS(=O)(=O)Cl
Result block: 12.8% [at 15.8 µM] (inactive)

Query block: Any idea what its activity change, negative = cytotoxic is? The compound is COc1cc(C(C)C)ccc1C
Result block: 19.4% [at 15.8 µM] (inactive)

Query block: Any idea what its activity change, negative = cytotoxic is? The compound is O=C(O)C[C@H](O)C[C@H](O)/C=C/c1c(C2CC2)nc2ccccc2c1-c1ccc(F)cc1
Result block: -27.7% [at 15.8 µM] (inactive)
